Item-by-item account of pIC50
System Tested: αvβ6 (Homo sapiens, UniProt P06756+P18564)
Sequence (P06756 31-992 limits assumed): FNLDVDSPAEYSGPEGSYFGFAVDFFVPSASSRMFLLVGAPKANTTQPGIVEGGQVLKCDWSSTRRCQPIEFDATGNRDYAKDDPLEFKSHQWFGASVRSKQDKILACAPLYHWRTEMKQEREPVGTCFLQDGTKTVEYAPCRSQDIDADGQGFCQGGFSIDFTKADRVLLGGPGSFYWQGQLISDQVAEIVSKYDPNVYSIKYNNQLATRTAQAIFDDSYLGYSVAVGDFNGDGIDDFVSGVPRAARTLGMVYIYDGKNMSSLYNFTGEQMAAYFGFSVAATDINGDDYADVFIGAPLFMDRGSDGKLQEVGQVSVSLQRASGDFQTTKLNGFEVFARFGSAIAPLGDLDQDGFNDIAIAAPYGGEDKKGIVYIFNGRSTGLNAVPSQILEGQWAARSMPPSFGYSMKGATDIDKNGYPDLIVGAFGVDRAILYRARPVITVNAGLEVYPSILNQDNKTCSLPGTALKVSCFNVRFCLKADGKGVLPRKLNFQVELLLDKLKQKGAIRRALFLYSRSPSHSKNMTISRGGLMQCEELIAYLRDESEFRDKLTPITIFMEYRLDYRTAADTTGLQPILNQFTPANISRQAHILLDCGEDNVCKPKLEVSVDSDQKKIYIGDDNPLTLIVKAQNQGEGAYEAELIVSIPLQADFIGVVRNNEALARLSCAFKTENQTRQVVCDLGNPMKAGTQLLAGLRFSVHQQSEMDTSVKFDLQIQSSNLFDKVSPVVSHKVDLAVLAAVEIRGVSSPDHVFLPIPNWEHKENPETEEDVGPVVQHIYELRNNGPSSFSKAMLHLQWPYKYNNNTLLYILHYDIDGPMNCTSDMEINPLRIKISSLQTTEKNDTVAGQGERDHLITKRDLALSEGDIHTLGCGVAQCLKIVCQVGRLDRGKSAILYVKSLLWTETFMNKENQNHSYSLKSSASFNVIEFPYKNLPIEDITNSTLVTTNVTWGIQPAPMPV
Sequence (P18564 22-707 limits assumed): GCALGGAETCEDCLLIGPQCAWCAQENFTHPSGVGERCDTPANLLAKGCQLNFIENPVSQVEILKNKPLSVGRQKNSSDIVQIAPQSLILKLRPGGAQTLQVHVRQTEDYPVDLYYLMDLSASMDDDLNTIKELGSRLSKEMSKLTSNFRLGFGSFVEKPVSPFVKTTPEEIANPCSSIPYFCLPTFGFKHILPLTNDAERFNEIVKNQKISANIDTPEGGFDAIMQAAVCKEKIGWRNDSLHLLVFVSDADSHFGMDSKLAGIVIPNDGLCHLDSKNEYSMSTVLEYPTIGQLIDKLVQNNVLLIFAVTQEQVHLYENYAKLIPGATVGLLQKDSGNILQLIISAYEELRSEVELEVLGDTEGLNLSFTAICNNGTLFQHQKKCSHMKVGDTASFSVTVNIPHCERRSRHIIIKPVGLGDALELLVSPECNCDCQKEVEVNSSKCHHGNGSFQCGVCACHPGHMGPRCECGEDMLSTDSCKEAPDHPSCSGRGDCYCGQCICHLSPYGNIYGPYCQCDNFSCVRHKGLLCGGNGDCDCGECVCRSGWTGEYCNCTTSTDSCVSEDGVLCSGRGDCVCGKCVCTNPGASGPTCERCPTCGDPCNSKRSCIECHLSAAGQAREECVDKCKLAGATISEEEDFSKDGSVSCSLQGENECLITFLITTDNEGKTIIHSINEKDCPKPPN
Test Summary: Solid Phase Integrin αvβ6 Assay
pIC50: −log10 of the molar value. Where a name gives a salt, the structure may show the parent alone.

Sample records with pIC50:
{"Compound": "O=C(NC[C@H](Nc1ncnc2sccc12)C(=O)O)[C@@H]1CCCN(CCCc2ccc3c(n2)NCCC3)C1 [Compound 279]", "Readout": "pIC50", "Recorded Result": "> 7.00"}
{"Compound": "O=C(O)C[C@H](NC(=O)[C@@H]1CCCN(CCCc2ccc3c(n2)NCCC3)C1)c1cccc(C2CCCC2)c1 [Compound 231, hydrochloride]", "Readout": "pIC50", "Recorded Result": "> 7.00"}
{"Compound": "O=C(O)C[C@H](C(=O)N[C@@H]1CCCN(CCCc2ccc3c(n2)NCCC3)C1)c1ccccc1 [Compound 299]", "Readout": "pIC50", "Recorded Result": "< 6.00"}
{"Compound": "O=C(O)C[C@@H](NC(=O)[C@@H]1CCCN(CCCc2ccc3c(n2)NCCC3)C1)c1cccc(C2CC2)c1F [Compound 344]", "Readout": "pIC50", "Recorded Result": "> 7.00"}

Now for a further compound.
# input Fill in the blank: the reported pIC50 of CN(C[C@@H]1CCCN(CCCc2ccc3c(n2)NCCC3)C1)[C@@H](CC(=O)O)c1ccccc1 [Compound 293, hydrochloride] is ____.
# output < 6.00
